Measured AC50 on D(1A) dopamine receptor (Homo sapiens, UniProt P21728) follows.
Sequence (P21728 whole entry): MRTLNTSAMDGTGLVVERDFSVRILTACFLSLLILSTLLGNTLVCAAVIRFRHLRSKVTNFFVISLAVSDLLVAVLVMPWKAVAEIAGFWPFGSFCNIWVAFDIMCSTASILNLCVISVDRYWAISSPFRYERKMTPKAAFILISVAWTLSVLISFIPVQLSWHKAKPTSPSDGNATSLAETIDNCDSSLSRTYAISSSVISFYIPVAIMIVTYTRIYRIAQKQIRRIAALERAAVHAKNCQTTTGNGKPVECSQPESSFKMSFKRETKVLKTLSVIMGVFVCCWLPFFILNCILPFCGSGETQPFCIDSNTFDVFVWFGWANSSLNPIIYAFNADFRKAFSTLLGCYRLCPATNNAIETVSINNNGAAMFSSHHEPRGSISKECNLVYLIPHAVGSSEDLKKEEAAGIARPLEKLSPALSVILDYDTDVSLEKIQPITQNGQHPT
QUANTITY: AC50

| COMPOUND | QUANTITY | RESULT |
| --- | --- | --- |
| Cc1cn([C@H]2C=C[C@@H](CO)O2)c(=O)[nH]c1=O | AC50 | > 30000 nM |
| CC(=O)c1ccc2c(c1)N(CCCN(C)C)c1ccccc1S2 | AC50 | 66 nM |
| CN1CCN(CC/C=C2/c3ccccc3Sc3ccc(S(=O)(=O)N(C)C)cc32)CC1 | AC50 | 19 nM |
| C=CCN1CCCC1CNC(=O)c1cc(S(N)(=O)=O)cc(OC)c1OC (stereo not given) [VERALIPRIDE] | AC50 | 13 nM |
| O=C(OCC(O)CO)c1ccccc1Nc1ccnc2cc(Cl)ccc12 (stereo not given) | AC50 | > 30000 nM |

====

Measured AC50 on Sodium-dependent dopamine transporter (Homo sapiens) follows.
Sequence (Q01959 whole entry): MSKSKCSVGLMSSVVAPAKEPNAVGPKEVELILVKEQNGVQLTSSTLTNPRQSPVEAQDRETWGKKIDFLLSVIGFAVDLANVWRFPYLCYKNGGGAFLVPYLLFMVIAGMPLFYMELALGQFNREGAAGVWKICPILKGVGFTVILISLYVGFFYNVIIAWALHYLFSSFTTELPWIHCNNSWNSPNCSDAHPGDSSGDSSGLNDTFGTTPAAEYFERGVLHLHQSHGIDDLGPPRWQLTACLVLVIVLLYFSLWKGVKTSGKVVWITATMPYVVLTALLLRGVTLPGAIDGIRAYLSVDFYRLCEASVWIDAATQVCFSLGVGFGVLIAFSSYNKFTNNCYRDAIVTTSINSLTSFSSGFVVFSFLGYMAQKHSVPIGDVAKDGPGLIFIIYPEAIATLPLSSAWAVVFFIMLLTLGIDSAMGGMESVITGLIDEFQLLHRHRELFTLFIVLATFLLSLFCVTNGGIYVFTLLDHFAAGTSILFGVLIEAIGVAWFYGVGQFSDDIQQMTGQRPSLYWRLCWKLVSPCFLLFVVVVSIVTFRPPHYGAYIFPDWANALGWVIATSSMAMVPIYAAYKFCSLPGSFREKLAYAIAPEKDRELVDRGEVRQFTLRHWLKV
QUANTITY: AC50

| COMPOUND | TARGET_OF_ASSAY | RESULT |
| --- | --- | --- |
| Cn1c(=O)c2c(ncn2CC2OCCO2)n(C)c1=O | Sodium-dependent dopamine transporter (Homo sapiens) | > 30 µM |
| NC(=O)OCC(COC(N)=O)c1ccccc1 [FELBAMATE] | Sodium-dependent dopamine transporter (Homo sapiens) | > 10 µM |
| CC(C)Cn1cnc2c(N)nc3ccccc3c21 | Sodium-dependent dopamine transporter (Homo sapiens) | > 30 µM |
| CCCC1O[C@@H]2C[C@H]3[C@@H]4CCC5=CC(=O)C=C[C@]5(C)[C@H]4[C@@H](O)C[C@]3(C)[C@]2(C(=O)CO)O1 (stereo not given in full) [BUDESONIDE] | Sodium-dependent dopamine transporter (Homo sapiens) | > 10 µM |
| C=CCN1CCCC1CNC(=O)c1cc(S(N)(=O)=O)cc(OC)c1OC (stereo not given) [VERALIPRIDE] | Sodium-dependent dopamine transporter (Homo sapiens) | > 30 µM |

====

- TARGET_OF_ASSAY: Alpha-2C adrenergic receptor (Homo sapiens, UniProt P18825); further: assay procedure not described here
- Sequence (P18825 whole entry): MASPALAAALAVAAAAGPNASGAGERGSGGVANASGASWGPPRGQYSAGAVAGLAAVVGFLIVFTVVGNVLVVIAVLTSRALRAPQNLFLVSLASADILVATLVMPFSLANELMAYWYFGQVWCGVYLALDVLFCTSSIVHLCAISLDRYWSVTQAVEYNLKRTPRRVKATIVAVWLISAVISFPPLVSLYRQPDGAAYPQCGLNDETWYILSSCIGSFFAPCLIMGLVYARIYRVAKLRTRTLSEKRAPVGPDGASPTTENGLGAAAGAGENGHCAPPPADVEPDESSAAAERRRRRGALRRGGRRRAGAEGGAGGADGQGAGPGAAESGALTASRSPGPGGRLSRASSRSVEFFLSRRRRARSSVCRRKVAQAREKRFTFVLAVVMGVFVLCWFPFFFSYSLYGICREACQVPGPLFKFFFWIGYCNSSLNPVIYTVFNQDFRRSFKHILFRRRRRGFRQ
- Format: functional

| COMPOUND | AC50 |
| --- | --- |
| CO[C@H]1C[C@@H]2CC[C@@H](C)[C@@](O)(O2)C(=O)C(=O)N2CCCC[C@H]2C(=O)O[C@H]([C@H](C)C[C@@H]2CC[C@@H](O)[C@H](OC)C2)CC(=O)[C@H](C)/C=C(\C)[C@@H](O)[C@@H](OC)C(=O)[C@H](C)C[C@H](C)/C=C/C=C/C=C/1C [SIROLIMUS] | > 10 µM |
| O=C(NCCN1CCOCC1)c1ccc(Cl)cc1 [MOCLOBEMIDE] | > 10 µM |
| C[C@@H](O)[C@H]1C(=O)N2C(C(=O)O)=C(S[C@@H]3CN[C@H](C(=O)N(C)C)C3)[C@H](C)[C@H]12 [MEROPENEM] | > 300 µM |
| Cc1ccc(-c2cc(C(F)(F)F)nn2-c2ccc(S(N)(=O)=O)cc2)cc1 [CELECOXIB] | > 10 µM |
| CCOC(=O)[C@H](CCc1ccccc1)N[C@@H](C)C(=O)N1C(=O)N(C)C[C@H]1C(=O)O | > 30 µM |
| CCN1CCN(C(=O)N[C@@H](C(=O)N[C@@H]2C(=O)N3C(C(=O)O)=C(CSc4nnnn4C)CS[C@H]23)c2ccc(O)cc2)C(=O)C1=O [CEFOPERAZONE] | > 30 µM |
